test system: Saccharomyces cerevisiae; experiment: transcriptional activation domain activity (GFP:mCherry ratio, weighted mean of sorted bins, harmonized to initial dataset scale) (arbitrary fluorescence ratio units); higher = stronger transcriptional activation; settings: beta-estradiol 1 µM; induction time 4 h
PROPERTY_MEASURED: transcriptional activation domain activity
Respond using a number only.

>>> readout_value("KISAEYMVQYKGGLIGKHFKSLSQIMAFVVYDLVPKDILDAWTIIGRLVVLLW")
75900
>>> readout_value("VQLVLVLILVNILINILTFLILSHQGVMHTSCLYLFAYICARLCLGASLSGVW")
12800
>>> readout_value("MKVDLNKHPSCRRIIWVGYTKICTFLIPDKLLVYLSLTTQARRIAWREKLTLF")
59600
>>> readout_value("ESAKDKENAKGRKEAEKKKNKEEKERVKKESRERERESRRSAEGRKRPALASL")
25400
>>> readout_value("AFSFALFDFDTLAGTFPFDSLGYSDDISTLTDPLIPMNYDPTPFSWTPRTTLA")
54300
>>> readout_value("MMFCLRSFIPLLLLPLPPSLSPLHLVLLLFLTYILNRPCIYCSFLLLILFVSS")
60600
>>> readout_value("EFPAPPARPPPSHTAPPAPPPPPPPPPPPAAGGGVPPPPPPPPPPATGGAPAP")
30300
>>> readout_value("MRLIYLPIIFCRLPSHGWTIWMPIIRALSLLVFSLIYLLFIGDLPALTLTIFF")
50900

Prompt line: What value of measured transcriptional activation domain activity is listed for EGGEKGTKEGGEKKEGAGEKEGGEKKEGGEKEGAKEGGEIGAKEGEEKKEGGE ?
Response line: 17500

====

# key: entry, value: transcriptional activation domain activity
tested on: Saccharomyces cerevisiae; experiment: transcriptional activation domain activity (GFP:mCherry ratio, weighted mean of sorted bins, harmonized to initial dataset scale) (arbitrary fluorescence ratio units); higher = stronger transcriptional activation; conditions: beta-estradiol 1 µM; induction time 4 h
Respond using a number only.

Here are 5 sequences together with their reported answers.
>>> readout_value("TLKGIVLRNPVTLRLEEEEDDAANLTQYFVKCSEVDKFLLIQVMIKMRMIKGK")
46700
>>> readout_value("PSLPPSHPVPSLSLFCFFVFFFAFFFFFFMPIFYYNLLISHFPFCRCWRCLHM")
26200
>>> readout_value("PRHIQTIDEKLINDSNYLAFLKFDDLENEKFHSSASSISSPSYSSPSFSSYRN")
82100
>>> readout_value("MLNLVILAFVIVFSTFLIGCVDYAAIPTHHALSEVMLPHCYARLSPSTVLFLL")
39700
>>> readout_value("SRLFDLQLNICLSFQVYWFRNLVDGFPLDIPPLHIASFFGLVEPLTALLKSLG")
33100

Prompt line: What value of measured transcriptional activation domain activity is listed for GVDGDGAADADADEDDEEGEEDEDDEGGGAGRKRKKARMEAAPKAKPKPAPAK ?
Response line: 27700

Prompt line: And LQQLLLRDYFKYFIKVFQDLSTYERKSYFVFRQMAYAIISIAQGRGCIEFQCH ?
Response line: 43100

Prompt line: And TKQGHELLHQLRHLIIFREGMPCSDITLKLDIHVSKLVFVFLSAFEHGLCSKD ?
Response line: 58200

Prompt line: And DYLWADMDSFFPFVRLLPTPVQEIWDMTFDIALLPLMECPPPEEWTLFDTYAY ?
Response line: 52400

====

system: Saccharomyces cerevisiae; assay: transcriptional activation domain activity (GFP:mCherry ratio, weighted mean of sorted bins, harmonized to initial dataset scale) (arbitrary fluorescence ratio units); higher = stronger transcriptional activation; conditions: beta-estradiol 1 µM; induction time 4 h
# key: entry, value: transcriptional activation domain activity

Here are 5 sequences together with their reported answers.
>>> readout_value("MAPETADKPSRRRHIKSRSGCKNCKKRKVKCGEERPSCRNCSRRGSLCDLADE")
20400
>>> readout_value("FDYDMFFRDSSKEGNNLFGEFLEDDDDDKKAANMSDDESSLIKNQLINEEPEL")
41400
>>> readout_value("AQSTSVVLVFGSDEKKVKEIGEGLKSKLGIKGGGKGTRWSGKFTGVWKDAREG")
46700
>>> readout_value("ILFCSWLSFRQLFFLFICNTHHWVFEDYFCHFSFFLSLFLMAITWKCFFFFFF")
38900
>>> readout_value("AFLLPFANHHRFVSYCLYVFGFIFFVFSLEKGYYKQQFTQFCVTHMCLLLVVF")
39800

Prompt line: What value of measured transcriptional activation domain activity is listed for MRIFVFFSLLFLFFFCYMYYICLLLFCTLQTYIFILYHIIPYSILIYIYYISN ?
Response line: 59200

Prompt line: And SSSKSKPIPDAKKRKSSASKPKSASSADRDTKRSGSRPESGKKSSTSSRSSKS ?
Response line: 22900

Prompt line: And RIVSSLFFICHGNYYIAFVILSKALDDYVPKIYVLNLNLNHLYLGLLIMCLLL ?
Response line: 35800

Prompt line: And TRNSCVKIEKEDSLTNLNEIDFTNMFCNDNFIQNYNQGLMELLTEPTPGPSSS ?
Response line: 64700

Prompt line: And FALMLREPAIQDVMSLLITTMSKFMDWFDFLDLIVTYPEFPDPKWLTTLFLIL ?
Response line: 23900

Prompt line: And FFDDIPDTLESIRKHIDLFGNDFYLAHIYRTLRWWTKPTHVAVLGDLLGSQWI ?
Response line: 70300

Prompt line: And MAALLWVLAVCLWIHPLSILAFTFHSVEGFKLVREILLDVLPTFDPHSYQIDG ?
Response line: 53200

Prompt line: And RVFTVPGKCFFDALAADSTDASCTEESLKKIWNELHTTSSEIEPWSNGYIDIS ?
Response line: 98000

Prompt line: And FCVAAMIGEYGTTYYPTVTYWGELEVLGKIFWTLPLESFANSISGIIVDCYLI ?
Response line: 63500

Prompt line: And AMAEKAAEEKPAAKKRGRPPKGPTMVEVVVEAPPAKKRGRPAKEDGAAAAATA ?
Response line: 20000

Prompt line: And VYCELVSFLVLSSKKSDTKLLIQLERVARYISQLLFVESDAITMTSGISVLRP ?
Response line: 37500

Prompt line: And DKKEAKPVNGESSKDTKPSGKEKEKELKDNAKPKEAKKGEGNKGGLAKAAAAP ?
Response line: 25800

Prompt line: And INKGTNRFSETVLPPQMAAEQSWSDSNMELEICLDYLHNELEVIKKRQEDFEC ?
Response line: 60200

Prompt line: And KPKVKKDADDDAMDVDEEEKPKPKPKPRPKPKATSSPKEGEEDEPAKKKLKTS ?
Response line: 51400

Prompt line: And MFYKLLIIYCFLFFRIYFLFHFFSYIYFFFFLFSISNFVISLPSNLFSHLLFF ?
Response line: 47000

Prompt line: And HSKHSAEGIVVSKYLMCFLLFCVWIFTHLVEVAVLLLQIIYNTLFILRSLFLH ?
Response line: 63800

====

# key: entry, value: transcriptional activation domain activity
test system: Saccharomyces cerevisiae; assay: transcriptional activation domain activity (GFP:mCherry ratio, weighted mean of sorted bins, harmonized to initial dataset scale) (arbitrary fluorescence ratio units); higher = stronger transcriptional activation; details: beta-estradiol 1 µM; induction time 4 h
Respond using a number only.

Here are 5 sequences together with their reported answers.
>>> readout_value("ASGAAAPSGTPSLFGAKPAGTTAAPATSTPAGGLFGAASSAAPAASATTPTTG")
47400
>>> readout_value("MISTLAMSLLETPIEPRTHAEICLEFWGIRLCSPITDINLAAFWNYYFKTIAH")
45600
>>> readout_value("MLSSWSTSLNLVFFSLTWTTIAMTYSPLQLEFFAPLLLRTFLYLLPSALFLLF")
67600
>>> readout_value("MPPKRGRPKKASTPPPAPVEDEAPAPVAAPRGRGRPRKVQPSGDPEQTTAPTP")
28500
>>> readout_value("KKEEVKQEPAAPTPAPAPAPTGASSDRGGRGQGRGRARGDSSRGGGGRAAAPP")
38000

Prompt line: What value of measured transcriptional activation domain activity is listed for EGKTRESKQKQGRERIGKGKGSREKGERREEEEGKGGKRRAGRKEGEWRSRGS ?
Response line: 32400

Prompt line: And MFYNFFFFIIIYLCFFARMFLVVSRIVMLLAFLYSCLIPLLCGLVFFCIRFKS ?
Response line: 67300

Prompt line: And EDEETARPKRKSPSAVLKSHTARVSRAVFGRDAKGASAYSCGFDSTVRTWDVE ?
Response line: 49700

Prompt line: And TSSPSAISSTSVNTLLVAGSEGTDAHVKTVGEQLKTRMGVKGGGKGTRWSGKM ?
Response line: 57300

Prompt line: And MFLVLGWMFAHFVTVSCWPLLLWHVFFWCCLTGASEAELFIPPFIFRLPILSS ?
Response line: 74400

Prompt line: And YVILVAVSIFTTTYVMLTSLPVLFQQCPFQTPLSSIIWYLGHFLVIAFLSLFS ?
Response line: 62600

Prompt line: And AILKCIACHNGAMDSVRLLSVLTVPSGPALAHVHLCLLRYLKNRVISEQFGPS ?
Response line: 21100
